Listing: IC50 of selected compounds
tested on: H2009; assay: Tumor cell proliferation inhibition (Promega cell viability, 72 h); format: cell-based; settings: Homo sapiens, NCI-H2009, H2009 cells, read-out: Anti-proliferation IC50
Numeric answer only, unit nM assumed.

Asked: Return reported IC50; argument: Cc1nc(C(F)(F)F)ncc1Oc1ccc(CNc2nc(C)c3c(n2)N(C)[C@@H](C)C(=O)N3)cn1 [AN10250484]
Given back: 91.7

Moving on to the next compound.
Asked: If you can, please state the reported IC50 value of [2H]C([2H])([2H])N1c2nc(NCc3ccc(Oc4cnc(C(F)(F)F)nc4)nc3)nc3c2N(CCC3)C(=O)[C@]1(C)CO [AN10250399] .
Given back: 214

====

test system: Colo205; assay: Tumor cell proliferation inhibition (Promega cell viability, 72 h); assay type: cell-based; conditions: Homo sapiens, COLO 205, Colo205 cells, read-out: Anti-proliferation IC50
We begin with a simple list: items and their reported IC50.
# value in nM; strip the unit string

Asked: Lab note: need IC50 with Colo205 for entry Cc1nc(C(F)(F)F)ncc1Oc1ccc(CNc2nc(C)c3c(n2)N(C)[C@@H](C)C(=O)N3)cn1 , please look it up.
Given back: 9

Now examine the next entry.
Asked: Given the entry [2H]C([2H])([2H])N1c2nc(NCc3ccc(Oc4cnc(C(F)(F)F)nc4)nc3)nc3c2N(CCC3)C(=O)[C@]1(C)CO , what IC50 was observed with Colo205?
Given back: 43

====

Examples of compounds with documented pIC50 follow.
tested on: DU4475; assay: Tumor cell proliferation inhibition (Promega cell viability, 72 h); assay type: cell-based; details: Homo sapiens, DU-4475, DU4475 cells, read-out: Anti-proliferation IC50
Note on pIC50: it is the negative log10 of concentration, concentration in mol/L.

Asked: For the compound [2H]C([2H])([2H])N1c2nc(NCc3ccc(Oc4cnc(C(F)(F)F)nc4)nc3)nc3c2N(CCC3)C(=O)[C@]1(C)CO , what pIC50 is on record?
Given back: 7.43

Below: the item to evaluate.
Asked: Would you kindly share the measured pIC50 for Cc1nc(C(F)(F)F)ncc1Oc1ccc(CNc2nc(C)c3c(n2)N(C)[C@@H](C)C(=O)N3)cn1 ?
Given back: 8.10

====

test system: NCI-H716; test: Tumor cell proliferation inhibition (Promega cell viability, 72 h); type: cell-based; details: Homo sapiens, NCI-H716 cells, read-out: Anti-proliferation IC50
pIC50: −log10 of the molar value.
Value kind: pIC50

Asked: // lookup pIC50 for [2H]C([2H])([2H])N1c2nc(NCc3ccc(Oc4cnc(C(F)(F)F)nc4)nc3)nc3c2N(CCC3)C(=O)[C@]1(C)CO [AN10250399]
Given back: < 5.00

Lab note: next molecule to report on.
Asked: Look at this molecule and give its reported pIC50. Cc1nc(C(F)(F)F)ncc1Oc1ccc(CNc2nc(C)c3c(n2)N(C)[C@@H](C)C(=O)N3)cn1 [AN10250484]
Given back: < 5.00

====

system: DLD1; experiment: Tumor cell proliferation inhibition (Promega cell viability, 72 h); assay type: cell-based; details: Homo sapiens, DLD-1, DLD1 cells, read-out: Anti-proliferation IC50
Excerpt: […]
# pIC50 per record follows
pIC50 here is simply -log10 of the concentration when that concentration is written in mol/L.

Asked: Which measured pIC50 belongs to [2H]C([2H])([2H])N1c2nc(NCc3ccc(Oc4cnc(C(F)(F)F)nc4)nc3)nc3c2N(CCC3)C(=O)[C@]1(C)CO [AN10250399] , tested on DLD1?
Given back: 7.02

Now for a further compound.
Asked: Quick check: pIC50 on DLD1, item Cc1nc(C(F)(F)F)ncc1Oc1ccc(CNc2nc(C)c3c(n2)N(C)[C@@H](C)C(=O)N3)cn1 [AN10250484] ?
Given back: 6.50

====

Below: a set of entries, each annotated with reported IC50.
tested on: LS174T; assay: Tumor cell proliferation inhibition (Promega cell viability, 72 h); assay type: cell-based; settings: Homo sapiens, LS174T cells, read-out: Anti-proliferation IC50
Express your answer in nM, writing the number without its unit.

Asked: Need IC50, item [2H]C([2H])([2H])N1c2nc(NCc3ccc(Oc4cnc(C(F)(F)F)nc4)nc3)nc3c2N(CCC3)C(=O)[C@]1(C)CO
Given back: 102

Okay, next one:
Asked: Endpoint output: IC50 of Cc1nc(C(F)(F)F)ncc1Oc1ccc(CNc2nc(C)c3c(n2)N(C)[C@@H](C)C(=O)N3)cn1 . Value?
Given back: 26.3

====

test system: THP1; assay: Tumor cell proliferation inhibition (Promega cell viability, 72 h); format: cell-based; conditions: Homo sapiens, THP-1, THP1 cells, read-out: Anti-proliferation IC50
Value kind: IC50

Asked: What value of IC50 has been reported for the following molecule? [2H]C([2H])([2H])N1c2nc(NCc3ccc(Oc4cnc(C(F)(F)F)nc4)nc3)nc3c2N(CCC3)C(=O)[C@]1(C)CO
Given back: > 10 µM

Asked: # query: IC50 of entry Cc1nc(C(F)(F)F)ncc1Oc1ccc(CNc2nc(C)c3c(n2)N(C)[C@@H](C)C(=O)N3)cn1
Given back: > 10 µM

====

Consider the following molecules and their measured pIC50 readings.
test system: non-phosphorylated β-catenin; assay: Western blot of non-phosphorylated β-catenin content in Colo205 cells; assay type: cell-based; conditions: overnight, Western blot, read-out: Non-phosphorylated β-catenin content inhibition IC50
Please express pIC50 as -log10 of the molar concentration.

Asked: Fill blank: measured pIC50 of the molecule Cc1nc(NCc2ccc(Oc3cnc(C(F)(F)F)nc3)nc2)nc2c1NC(=O)[C@H](C)N2C [AN10250421] is ____.
Given back: 8.00

Asked: Which value of pIC50 has been reported for [2H]C([2H])([2H])N1c2nc(NCc3ccc(Oc4cnc(C(F)(F)F)nc4)nc3)nc3c2N(CCC3)C(=O)[C@]1(C)CO [AN10250399] in the records?
Given back: 7.66

Continuing:
Asked: Fill blank: measured pIC50 of the molecule Cc1nc(C(F)(F)F)ncc1Oc1ccc(CNc2nc(C)c3c(n2)N(C)[C@@H](C)C(=O)N3)cn1 [AN10250484] is ____.
Given back: 8.00
